Cited source: patent US20100048468A1

Reported pIC50 values follow for various binders
# measured.target: T1, human GLP-1 receptor (human, UniProt P43220 24-463)
# T1 construct: whole, on cells
# experimental.protocol: 125I-GLP-1 displacement, membranes of CHOK1 cells expressing human GLP-1 receptor
pIC50: −log10 of the molar value. Non-standard residues stand in square brackets, D forms with d. Primed or numbered codes have the meaning given here. No end group written: not given here. Aib′ = alpha aminobutyric acid (source's wording)

- binder: "HGEGTFTSDVSSYLE[Aib′]QAAKEFIAWLVKGRGC(mPEG‑maleimide 20 kDa)SG (also called cgGLP-19) [mgGLP19 & cgGLP- (SEQ ID NO: 21 + 20k PEG)]"
  pIC50: 6.64
- binder: "HGEGTFTSDVSSYLE[Aib′]QAAKEFIAWLVKGRGC(mPEG‑maleimide 20 kDa)SG-NH2 [cgGLP-24 cgGLP-27, mgGLP-22, mgGLP-33 & mgGLP-27 (SEQ ID NO: 22 + 20k PEG)]"
  pIC50: 7.33
- binder: "HGEGTFTSDVSSYLE[Aib′]QAAKEFIAWLVKGRGC(mPEG‑maleimide 5 kDa)SG-NH2 (also called cgGLP-25) [cpGLP-25 (SEQ ID NO: 22 + 5k PEG)]"
  pIC50: 7.82
